system: SK-OV-3 ovarian; assay: NCI tumour cell line growth inhibition, 48 h; in the data active = GI50 below about 0.43 µM; inactive = the rest
Could you please pick one outcome from this set? Yes for active, No for inactive

{"molecule": "N=C(N)c1ccc(-c2ccc(-c3ccc(F)cc3)o2)o1", "class_name": "No"}
{"molecule": "CCC(=O)c1ccc2c(c1)N(CCCN1CCN(CCO)CC1)c1ccccc1S2", "class_name": "No"}
{"molecule": "COc1ccc2[nH]cc(-c3nc(-c4c[nH]c5ccncc45)cs3)c2c1", "class_name": "No"}

Input: Hey, what did the test say about Oc1ccc(CN(Cc2ccc(C(F)(F)F)cc2)Cc2ccc(O)c3ncccc23)c2cccnc12 ?
Output: Yes

Input: How was CNCCOC(=O)/C=C1/CCC2C(C(O)CC3C(C)(C(=O)OC)CCCC23C)C1C (stereo unspecified) classified in this test?
Output: Yes

Input: In this assay, the call recorded for Cc1cc2nc3c4cccc(O)c4n(CCN(C)C)c3nc2cc1C was what?
Output: No

Input: // return assay outcome for O=C1C=CC(=O)c2c1ncc1c2nc2sccn21
Output: No

Input: How did this test come out for COc1ccc(/C=C\c2cc(OC)c(OC)c(OC)c2)cc1OCC(=O)Nc1nc2ccc(OC(F)(F)F)cc2s1 ?
Output: No

---

test system: DU-145 prostate; test: NCI tumour cell line growth inhibition, 48 h
property_label: TGI (µM)
Give bare numbers, in µM.

{"structure_string": "Cc1ccc(Oc2nc3ccccc3cc2-c2nnc(Cn3c(COc4ccccc4)nc4ccccc43)o2)cc1", "experimental_target": "DU-145 prostate", "test_value": 45.7}

Please go through the list and note TGI for each molecule.
1. CC(=O)NC1=C(C)C(=O)c2c(nc3n2CC[C@H]3OC(C)=O)C1=O
2. Cc1cc(C)c2c(N)c3cccc(C)c3nc2n1
3. Cc1ccc2nc(N/N=C/c3cccc(C)n3)cc(C)c2c1

Output:
[29.4, 6.5, 36.3]

Batch request: TGI for each of the following molecules.
1. COc1cc2c3c(n(CCCNCCNCCCN)c(=O)c2cc1OC)-c1cc2c(cc1C3=O)OCO2
2. O=C1CC/C(=C\COc2ccc3ccc(=O)oc3c2)O1

Output:
1. 17
2. 14.1

---

Kindly state TGI for each of the entries shown.
tested on: HS 578T breast; experiment: NCI tumour cell line growth inhibition, 48 h
Give bare numbers, in µM.

Examples with their reported TGI follow.
{"compound": "COc1ccc2c(c1)[C@@]1(C)CCC3c4ccc(O)cc4CCC3C1C2 (some centres not stated)", "experimental_target": "HS 578T breast", "measurement_unit": "µM", "test_value": 39.3}
{"compound": "NCCCCNC1(c2cc3ccccc3s2)CCCCC1", "experimental_target": "HS 578T breast", "measurement_unit": "µM", "test_value": 20.4}
{"compound": "C[C@H](CCC1=NCCN1)[C@H]1CC[C@H]2[C@@H]3CC[C@@H]4C[C@H](O)CC[C@]4(C)[C@H]3C[C@H](O)[C@]12C", "experimental_target": "HS 578T breast", "measurement_unit": "µM", "test_value": 27.8}
{"compound": "CC1(C)Cc2c(Br)c(Br)c(Br)c(OCC(O)CN3CCOCC3)c2O1 (configuration not stated)", "experimental_target": "HS 578T breast", "measurement_unit": "µM", "test_value": 47.4}
{"compound": "CCCCCCCCC/C=C1\\CC(CO)(COC(=O)c2ccccc2)OC1=O (configuration not stated)", "experimental_target": "HS 578T breast", "measurement_unit": "µM", "test_value": 40.2}
{"compound": "COc1cc2c3c(n(CCCNCCNCCCN)c(=O)c2cc1OC)-c1cc2c(cc1C3=O)OCO2", "experimental_target": "HS 578T breast", "measurement_unit": "µM", "test_value": 7.93}
{"compound": "O=C1CC/C(=C\\COc2ccc3ccc(=O)oc3c2)O1", "experimental_target": "HS 578T breast", "measurement_unit": "µM", "test_value": 81.7}
{"compound": "O=[N+]([O-])/C=C/c1ccc([N+](=O)[O-])cc1", "experimental_target": "HS 578T breast", "measurement_unit": "µM", "test_value": 9.87}
{"compound": "Cc1c(F)c(N)c2c(=O)cc(-c3ccc(NC(=O)C(N)CCCN=C(N)N)c(F)c3)oc2c1F (configuration not stated)", "experimental_target": "HS 578T breast", "measurement_unit": "µM", "test_value": 71.9}
{"compound": "NC(N)=N/N=C/c1c(-c2ccc(Cl)c([N+](=O)[O-])c2)nc2ccccn12", "experimental_target": "HS 578T breast", "measurement_unit": "µM", "test_value": 60.2}

Give me TGI for each of these compounds, listed below.
1. Cc1ccc2nc(N/N=C/c3cccc(C)n3)cc(C)c2c1
2. O=[N+]([O-])c1ccc(N=Nc2c(O)[nH]c3ccccc23)cc1
3. C=C1C(=O)O[C@H]2C[C@@H]1CCC1(C)OC1CC/C(C)=C/CC[C@H]2C (some centres not stated)
4. CN1C(=O)C(c2c[nH]c3ccccc23)=C(c2c(-c3c[nH]c4ccccc34)[nH]c3ccccc23)C1=O

Output:
[50.9, 51.6, 61, 13.6]

---

test system: MDA-N; assay: NCI tumour cell line growth inhibition, 48 h
property_label: TGI (µM)
Answers are plain numbers, in µM.

{"compound": "O=C(/C=C/c1ccccc1O)/C=C/c1ccccc1O", "TGI (µM)": 3.93}

Now for another entry.
Noted for CN(C)CCOC1(CC2CCCCC2)CCC(C(C)(C)C)CC1 (stereo not given) : its TGI reads 13.1

---

tested on: MALME-3M melanoma; test: NCI tumour cell line growth inhibition, 48 h; in the data active = GI50 below about 0.43 µM; inactive = the rest
Could you please pick one outcome from this set? 1 (yes) (active), 0 (no) (inactive)

Check out these entries, answers already filled in.
{"compound": "N=C(N)c1ccc(-c2ccc(-c3ccc(F)cc3)o2)o1", "class_name": "0 (no)"}
{"compound": "COc1ccc(-c2cc(-c3nnc(SCC(=O)Nc4ccc(C(C)=O)cc4)o3)c3ccccc3n2)cc1", "class_name": "0 (no)"}
{"compound": "O=[N+]([O-])/C=C/c1ccc([N+](=O)[O-])cc1", "class_name": "0 (no)"}
{"compound": "O=C(/C=C\\c1ccc2ccccc2n1)c1cc(Cl)ccc1O", "class_name": "0 (no)"}
{"compound": "Oc1cc(Cl)ccc1Cc1ccc(Cl)cc1O", "class_name": "0 (no)"}
{"compound": "CCCCCCN1CCN(Cc2ccc(N(CC)CC)cc2)C(=O)C1=O", "class_name": "0 (no)"}
{"compound": "Cc1cn2c(=O)n(c1=O)Cc1ccccc1C2", "class_name": "0 (no)"}
{"compound": "CC1(C)Cc2c(Br)c(Br)c(Br)c(OCC(O)CN3CCOCC3)c2O1 (configuration not stated)", "class_name": "0 (no)"}

Turning to the following compound.
Input: Test call for this compound, please: COc1ccc2c(c1)C(=O)c1c-2n(CCCN2CCOCC2)c(=O)c2cc([N+](=O)[O-])ccc12
Output: 1 (yes)

---

tested on: COLO 205 colon; experiment: NCI tumour cell line growth inhibition, 48 h
property_label: TGI (µM)
One number for each entry, in µM.

{"compound": "CCN1CCC(CC(=O)Nc2n[nH]c3nc(-c4cccs4)c(Br)cc23)CC1", "experimental_target": "COLO 205 colon", "test_value": 8.16}

Please look at the items below and tell me TGI for each one, in order.
1. COc1cc2c3c(n(CCCNCCNCCCN)c(=O)c2cc1OC)-c1cc2c(cc1C3=O)OCO2
2. CC1(C)Cc2c(Br)c(Br)c(Br)c(OCC(O)CN3CCOCC3)c2O1 (centres undefined)

Output:
1: 17.9; 2: 27

---

tested on: PC-3 prostate; assay: NCI tumour cell line growth inhibition, 48 h; in the data active = GI50 below about 0.43 µM; inactive = the rest
Please state which outcome applies, choosing from 1 (yes) for active, 0 (no) for inactive

{"compound": "N/C(=N\\c1nc2ccccc2s1)NC(=O)Nc1cccc2ccccc12", "class_name": "1 (yes)"}
{"compound": "C=C(C)[C@@H]1CC[C@]2(C(=O)NCCNCCNCCN)CC[C@]3(C)[C@H](CC[C@@H]4[C@@]5(C)CCC(=O)C(C)(C)[C@@H]5CC[C@]43C)[C@@H]12", "class_name": "0 (no)"}
{"compound": "COc1ccc(/C=C\\c2cc(OC)c(OC)c(OC)c2)cc1OCC(=O)Nc1nc2ccc(OC(F)(F)F)cc2s1", "class_name": "0 (no)"}
{"compound": "NC1=NC(c2ccc(F)cc2)C2=C(N1)c1ccc3ccccc3c1OCC2 (centres undefined)", "class_name": "0 (no)"}
{"compound": "COc1ccc(-c2cc(-c3nnc(SCC(=O)Nc4ccc(C(C)=O)cc4)o3)c3ccccc3n2)cc1", "class_name": "0 (no)"}

Input: Record lookup: outcome of this test for Cc1ccc(/C(=C/C=C(C#N)C#N)Sc2ccccn2)cc1 ?
Output: 0 (no)

Input: Which outcome did this test record for the compound COc1cc2c3c(n(CCCNCCNCCCN)c(=O)c2cc1OC)-c1cc2c(cc1C3=O)OCO2 ?
Output: 0 (no)

Input: Which result was noted for this compound in the test: COc1cc2ncn(-c3cc(OCc4ccccc4S(C)(=O)=O)c(C#N)s3)c2cc1OC
Output: 0 (no)

Input: Given CCC(=O)c1ccc2c(c1)N(CCCN1CCN(CCO)CC1)c1ccccc1S2 , state the outcome it received in this test.
Output: 0 (no)

Input: Lab log entry: CNCCOC(=O)/C=C1/CCC2C(C(O)CC3C(C)(C(=O)OC)CCCC23C)C1C (centres undefined) — outcome as called in the assay?
Output: 1 (yes)

Input: Fill in: this test's call for Nc1ccc(-n2c(=O)oc3ccc(Cl)cc3c2=O)c(Cl)c1 is ___
Output: 1 (yes)

Input: Recorded test outcome, item O=C1CC/C(=C\COc2ccc3ccc(=O)oc3c2)O1
Output: 0 (no)

Input: Hi, do you know how COc1ccc(-n2c(C)nc3c(c(C)nn3-c3ccccc3)c2=O)cc1 came out in this test?
Output: 1 (yes)

Input: Call for entry COc1ccc(C2=C(c3cc(OC)c(OC)c(OC)c3)C(=O)OC2)cc1OC :
Output: 1 (yes)
